assay: Cytotoxicity against human HuH7 cells assessed as reduction in rRNA levels incubated for 5 days by RT-PCR assay; format: cell-based, Huh-7; conditions: HuH7 cells

Smiles notation: CCOC(=O)CCc1ccccc1OP(=O)(OC[C@H]1O[C@@H](n2cnc3c(N)nc(N)nc32)[C@](C)(O)[C@@H]1O)Oc1ccccc1CCC(=O)OCC
CC50 at 120 h: > 10 µM

* * *

tested on: Hepatitis C virus; experiment: Antiviral activity against HCV genotype 1b containing NS5B C445F mutant infected in human HuH7 cells assessed as reduction in replicon RNA levels incubated for 5 days by RT-PCR assay; type: functional, cell-based, Hepacivirus hominis; settings: Huh-7, 120 h
Parameter: EC50 (nM)

Smiles notation: CCOC(=O)CCc1ccccc1O[P@@](=O)(N[C@@H](C)C(=O)OCC)OC[C@H]1O[C@@H](n2cnc3c(N)nc(N)nc32)[C@](C)(O)[C@H]1O
Readout unit: nM
Assay value: 120

* * *

tested on: HepG2; assay: Mitochondrial toxicity in human HepG2 cells assessed as induction of lactic acid levels at 50 uM incubated for 14 days; assay type: cell-based; conditions: hepg2, 336 h
Parameter: Activity (%)

Molecule: C[C@@]1(O)[C@H](O)[C@@H](CO)O[C@H]1n1cnc2c(N)nc(N)nc21
Parameter: Activity
Readout unit: %
Assay value: 110
//
Molecule: CCOC(=O)[C@H](C)NP(=O)(OC[C@H]1O[C@@H](n2cnc3c(N)nc(N)nc32)[C@](C)(O)[C@@H]1O)Oc1ccccc1 (some centres undefined)
Parameter: Activity
Readout unit: %
Assay value: 90
//
Molecule: CCOC(=O)CCc1ccccc1O[P@@](=O)(N[C@@H](C)C(=O)OCC)OC[C@H]1O[C@@H](n2cnc3c(N)nc(N)nc32)[C@](C)(O)[C@H]1O
Parameter: Activity
Readout unit: %
Assay value: 110
//
Molecule: CC(C)OC(=O)CCc1ccccc1OP(=O)(N[C@@H](C)C(=O)OC(C)C)OC[C@H]1O[C@@H](n2cnc3c(N)nc(N)nc32)[C@](C)(O)[C@H]1O (some centres undefined)
Parameter: Activity
Readout unit: %
Assay value: 80

* * *

test system: HepG2; experiment: Mitochondrial toxicity in human HepG2 cells assessed as induction of lactic acid levels at 1 uM incubated for 14 days; assay type: cell-based; conditions: hepg2, 336 h
# Activity annotations
Parameter: Activity (%)

Molecule: C[C@@]1(O)[C@H](O)[C@@H](CO)O[C@H]1n1cnc2c(N)nc(N)nc21
System name: HepG2
Assay value: 110
--
Molecule: COc1nc(N)nc2c1ncn2[C@@H]1O[C@H](COP(=O)(N[C@@H](C)C(=O)OCC(C)(C)C)Oc2cccc3ccccc23)[C@@H](O)[C@@]1(C)O (stereo not given in full)
System name: HepG2
Assay value: 190
--
Molecule: CC(C)OC(=O)CCc1ccccc1OP(=O)(N[C@@H](C)C(=O)OC(C)C)OC[C@H]1O[C@@H](n2cnc3c(N)nc(N)nc32)[C@](C)(O)[C@H]1O (stereo not given in full)
System name: HepG2
Assay value: 90
--
Molecule: CCOC(=O)[C@H](C)NP(=O)(OC[C@H]1O[C@@H](n2cnc3c(N)nc(N)nc32)[C@](C)(O)[C@@H]1O)Oc1ccccc1 (stereo not given in full)
System name: HepG2
Assay value: 100
--
Molecule: CCOC(=O)CCc1ccccc1O[P@@](=O)(N[C@@H](C)C(=O)OCC)OC[C@H]1O[C@@H](n2cnc3c(N)nc(N)nc32)[C@](C)(O)[C@H]1O
System name: HepG2
Assay value: 150
